Hello, the source for this data is the RepoRT retention time repository (doi:10.1016/j.jchromb.2020.122105), in case you need it.

# protocolText: RP, Waters CORTECS T3, 100 × 2.1 mm, 2.7 µm, 0.2 mL/min, estimated dead time 1.1 min; A: water + 0.1% formic acid, pH 3; B: methanol + 0.1% formic acid, pH 3; gradient (min/%B) 0/5 5/5 25/95 25.1/100 35/100 35.1/5 45/5
# conditionParameters: stereoisomer not certain
assayReadout: LC retention time

# example entries with known answers
Nc1ccccc1S(=O)(=O)O [ANILINE-2-SULFONIC ACID] :: 5.88 min
CCCCCCSCC(NC(=O)CCC(N)C(=O)O)C(=O)NCC(=O)O (centres undefined) [S-HEXYL-GLUTATHIONE] :: 22.9 min
O=C(O)CCCCCCCC(=O)O [AZELAIC ACID] :: 21.8 min
O=c1ccn(C2OC(COP(=O)(O)O)C(O)C2O)c(=O)[nH]1 (centres undefined) [URIDINE-5-MONOPHOSPHATE] :: 2.67 min
CC(=O)N[C@@H](Cc1ccccc1)C(=O)O [N-ACETYL-L-PHENYLALANINE] :: 19 min

Any idea what LC retention time was measured for N[C@@H](Cc1ccc(O)c([N+](=O)[O-])c1)C(=O)O [3-NITRO-L-TYROSINE] ? 12.6 min

Any idea what LC retention time was measured for O=C([O-])[C@H](O)[C@@H](O)[C@H](O)[C@H](O)CO [D-GLUCONATE] ? 2.58 min

Any idea what LC retention time was measured for Nc1nc2c(ncn2C2OC(CO)C(O)C2O)c(=O)[nH]1 (centres undefined) [GUANOSINE] ? 10.9 min

Any idea what LC retention time was measured for Cc1cc2nc3c(=O)[nH]c(=O)nc-3n(CC(O)C(O)C(O)CO)c2cc1C (centres undefined) [RIBOFLAVIN] ? 17.7 min

----------
# protocolText: RP, Waters ACQUITY UPLC BEH C18, 100 × 2.1 mm, 1.7 µm, 0.1 mL/min, estimated dead time 2.2 min; A: water + 0.1% formic acid, pH 3; B: methanol + 0.1% formic acid, pH 3; gradient (min/%B) 0/5 5/5 25/100 30/100 30.1/5 35/5
# conditionParameters: stereoisomer not certain
Listed next: entries and their corresponding LC retention time.
Dear colleague, please return just the value in min, with no unit written.

Cc1cc2nc[nH]c2cc1C :: 15.2
NC(=O)c1ccc[n+](C2OC(COP(=O)([O-])O)C(O)C2O)c1 (stereo not drawn) [NICOTINAMIDE MONONUCLEOTIDE] :: 2.69
CC(=O)NCCCCN :: 2.71
CC1C(=O)Nc2ccccc21 (stereo not drawn) :: 18.9
NC(=O)c1ccc[n+](C2OC(COP(=O)(O)OP(=O)(O)OCC3OC(n4cnc5c(N)ncnc54)C(O)C3O)C(O)C2O)c1 (stereo not drawn) :: 2.74
CC(=O)OCC(=O)C1(O)CCC2C3CCC4=CC(=O)CCC4(C)C3C(O)CC21C (stereo not drawn) [CORTISOL 21-ACETATE] :: 22.3
CCCCCCCCCCCC(=O)OC(CC(=O)[O-])C[N+](C)(C)C (stereo not drawn) :: 24.5

Any idea what LC retention time was measured for Nc1ccn(C2OC(CO)C3OP(=O)([O-])OC32)c(=O)n1 (stereo not drawn) [CYTIDINE 2',3'-CYCLIC MONOPHOSPHATE] ? 2.74
